Consider the following IC50 values measured on bovine cerebral TPK1 (Bos taurus, UniProt A0A3Q1MT31).
Sequence (A0A3Q1MT31 1-419): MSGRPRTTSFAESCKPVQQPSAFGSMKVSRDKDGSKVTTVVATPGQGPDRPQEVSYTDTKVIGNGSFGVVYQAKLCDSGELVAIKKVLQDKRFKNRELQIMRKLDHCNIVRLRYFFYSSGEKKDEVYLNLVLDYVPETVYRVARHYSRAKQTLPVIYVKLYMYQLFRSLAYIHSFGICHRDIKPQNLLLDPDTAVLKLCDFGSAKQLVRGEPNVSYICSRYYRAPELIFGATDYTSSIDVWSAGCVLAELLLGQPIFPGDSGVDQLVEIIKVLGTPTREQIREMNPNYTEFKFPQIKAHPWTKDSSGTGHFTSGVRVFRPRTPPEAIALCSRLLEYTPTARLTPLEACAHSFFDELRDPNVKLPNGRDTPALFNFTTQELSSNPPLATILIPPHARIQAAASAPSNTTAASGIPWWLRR
Answers are plain numbers, in nM.

The following compounds have reported results that may help.
1. Cn1c(N2CCO[C@@H](c3ccc(OCCN4CCOCC4)cc3)C2)nc(-c2ccncc2F)cc1=O ... 1.1
2. Cc1cc(C2CN(c3nc(-c4ccncc4F)cc(=O)n3C)CCO2)ccc1Br (centres unmarked) ... 0.51
3. COC(=O)Nc1ccc([C@H]2CN(c3nc(-c4ccncc4F)cc(=O)n3C)CCO2)cc1 ... 1.2

Value sought for every listed compound: IC50.
1. Cn1c(N2CCO[C@@H](c3ccc(NC(=O)C(C)(C)C)cc3)C2)nc(-c2ccncc2F)cc1=O
2. Cn1c(N2CCOC(c3ccc4c(c3)CCC(=O)N4)C2)nc(-c2ccncc2F)cc1=O (centres unmarked)
3. CC(C)Oc1ccc(-c2ccc([C@H]3CN(c4nc(-c5ccncc5F)cc(=O)n4C)CCN3)cc2)cc1
4. Cn1c(N2CCO[C@@H](c3cc4ccccc4o3)C2)nc(-c2ccncc2F)cc1=O
5. Cn1c(N2CCC[C@H](c3ccc(Br)cc3)C2)nc(-c2ccncc2F)cc1=O

[4.2, 1.2, 1.2, 7.9, 6.2]

----------
# TESTED ON: bovine cerebral TPK1 (Bos taurus, UniProt A0A3Q1MT31)
Mark True only when IC50 stays strictly below 3 nM. Values equal to the cut-off are False.

Reference set (5 entries):
1) Cn1c(N2CCO[C@@H](c3ccc(N[C@@H]4CCOC4)cc3)C2)nc(-c2ccncc2F)cc1=O [compound 220] ... True
2) CN(c1ccc([C@H]2CN(c3nc(-c4ccncc4F)cc(=O)n3C)CCO2)cc1)c1ccccn1 [compound 212] ... False
3) Cc1nc(-c2ccc([C@H]3CN(c4nc(-c5ccncc5F)cc(=O)n4C)CCN3)cc2)no1 [compound 334] ... True
4) Cn1c(N2CCN[C@@H](c3ccc(N4CCN(c5ccccc5)CC4)cc3)C2)nc(-c2ccncc2F)cc1=O [compound 22] ... True
5) Cn1c(N2CCN[C@@H](c3ccc(-c4ncon4)cc3)C2)nc(-c2ccncc2F)cc1=O [compound 322] ... False

Read the next record carefully.
A record lists COc1ccc(-c2ccc([C@H]3CN(c4nc(-c5ccncc5F)cc(=O)n4C)CCN3)cc2)cc1 [compound 41] . Is its IC50 below 3 nM?
True
